Data origin, for the record: patent US20040006236A1

Molecular target: LFA-1 binding to immobilized ICAM-1 (Homo sapiens, UniProt P05107+P20701)
Construct: made in house; host or cells: transfected 293 cells (LFA-1)
Sequence (P20701 26-1170): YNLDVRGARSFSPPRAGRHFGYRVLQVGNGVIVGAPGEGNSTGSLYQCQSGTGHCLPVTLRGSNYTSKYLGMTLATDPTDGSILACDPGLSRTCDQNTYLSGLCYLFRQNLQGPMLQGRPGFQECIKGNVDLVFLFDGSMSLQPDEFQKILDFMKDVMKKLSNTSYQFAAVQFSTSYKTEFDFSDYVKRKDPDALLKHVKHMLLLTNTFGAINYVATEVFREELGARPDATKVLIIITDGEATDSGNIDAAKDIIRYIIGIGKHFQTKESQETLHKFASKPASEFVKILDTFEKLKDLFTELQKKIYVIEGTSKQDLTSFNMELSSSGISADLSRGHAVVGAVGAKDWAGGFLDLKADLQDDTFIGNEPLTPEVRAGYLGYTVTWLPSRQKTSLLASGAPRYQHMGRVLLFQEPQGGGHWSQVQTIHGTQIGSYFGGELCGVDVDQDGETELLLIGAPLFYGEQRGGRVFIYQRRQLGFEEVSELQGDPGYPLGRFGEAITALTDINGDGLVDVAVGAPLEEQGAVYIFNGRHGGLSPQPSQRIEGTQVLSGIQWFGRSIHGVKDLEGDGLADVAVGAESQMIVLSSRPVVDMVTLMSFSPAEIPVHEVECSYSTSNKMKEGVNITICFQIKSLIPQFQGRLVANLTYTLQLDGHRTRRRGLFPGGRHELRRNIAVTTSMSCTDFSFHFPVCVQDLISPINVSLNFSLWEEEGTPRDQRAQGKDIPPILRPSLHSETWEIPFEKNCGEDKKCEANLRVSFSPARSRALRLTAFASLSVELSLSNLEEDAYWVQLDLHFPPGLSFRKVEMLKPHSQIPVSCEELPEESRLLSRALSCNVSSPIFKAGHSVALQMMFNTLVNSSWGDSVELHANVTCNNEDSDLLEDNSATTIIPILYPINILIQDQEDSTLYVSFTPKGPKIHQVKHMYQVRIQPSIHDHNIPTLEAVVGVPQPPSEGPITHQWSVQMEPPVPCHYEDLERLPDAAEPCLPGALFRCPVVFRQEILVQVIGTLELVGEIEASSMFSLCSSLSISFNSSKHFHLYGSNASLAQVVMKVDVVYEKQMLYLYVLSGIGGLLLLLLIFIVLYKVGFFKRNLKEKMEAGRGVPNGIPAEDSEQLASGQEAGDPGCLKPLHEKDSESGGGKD
Sequence (P05107 23-769): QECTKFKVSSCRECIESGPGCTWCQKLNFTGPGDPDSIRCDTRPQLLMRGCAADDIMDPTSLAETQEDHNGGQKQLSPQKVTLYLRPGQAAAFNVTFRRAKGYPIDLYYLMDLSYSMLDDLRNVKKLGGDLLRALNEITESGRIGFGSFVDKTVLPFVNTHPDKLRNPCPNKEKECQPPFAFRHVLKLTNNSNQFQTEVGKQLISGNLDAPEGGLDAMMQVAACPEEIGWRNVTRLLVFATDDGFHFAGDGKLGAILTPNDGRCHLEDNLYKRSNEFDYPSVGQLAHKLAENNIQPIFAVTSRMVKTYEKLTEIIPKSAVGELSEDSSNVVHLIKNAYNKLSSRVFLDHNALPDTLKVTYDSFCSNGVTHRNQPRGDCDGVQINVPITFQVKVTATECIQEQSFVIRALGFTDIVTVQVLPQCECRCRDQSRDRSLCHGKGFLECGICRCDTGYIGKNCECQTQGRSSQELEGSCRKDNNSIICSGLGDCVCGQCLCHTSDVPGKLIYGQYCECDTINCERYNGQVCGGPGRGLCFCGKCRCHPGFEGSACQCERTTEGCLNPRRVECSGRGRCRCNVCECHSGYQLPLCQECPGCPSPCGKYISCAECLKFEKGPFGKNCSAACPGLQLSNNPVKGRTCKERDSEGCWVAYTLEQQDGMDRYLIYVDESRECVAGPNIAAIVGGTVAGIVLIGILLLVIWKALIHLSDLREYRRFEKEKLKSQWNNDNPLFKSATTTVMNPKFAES
Assay: LFA-1/ICAM-1 protein-protein assay (solid-phase ELISA)
Details: read-out: LFA-1/ICAM IC50
pIC50: −log10 of the molar value.
Property: pIC50

These solved cases illustrate the format of a correct answer.
- Given Smiles: "O=C(NCc1cccc(O)c1)c1ccc(C(=O)N[C@@H](CNC(=O)c2cc([N+](=O)[O-])[nH]n2)C(=O)O)c(Cl)c1"
  Observed Value: 8.19
- Given Smiles: "O=C(NCc1cccc2[nH]ccc12)c1ccc(C(=O)N[C@@H](CNCc2ccccc2)C(=O)O)c(Cl)c1"
  Observed Value: 7.92

I: O=C(NCc1cccc2[nH]ccc12)c1ccc(C(=O)N[C@@H](CNC(=O)c2cccs2)C(=O)O)c(Cl)c1
II: O=C(NC[C@H](NC(=O)c1ccc(-n2nnnc2NCc2cccc(O)c2)cc1Cl)C(=O)O)c1cccs1
Name the one with the greater pIC50 value, either I or II as given. Please respond with the label that marks your chosen entry.
I

1: O=C(NC[C@H](NC(=O)c1c(Cl)cccc1Cl)C(=O)O)c1ccc(Br)s1
2: COc1cccc(C(=O)NC[C@H](NC(=O)c2ccc(C(=O)NCc3cccc(O)c3)cc2Cl)C(=O)O)c1
Name the one with the greater pIC50 value, either 1 or 2 as given. Please respond with the label that marks your chosen entry.
2

I: O=C(NCc1cccc(O)c1)c1ccc(C(=O)N[C@@H](CNC(=O)c2ccccc2)C(=O)O)c(Cl)c1
II: COc1cc(C(=O)NC[C@H](NC(=O)c2ccc(C(=O)NCc3cccc(O)c3)cc2Cl)C(=O)O)nc2ccccc12
Input pair: I , II . Output: entry with lower pIC50. Please respond with the label that marks your chosen entry.
II

A: O=C(NCc1cccc(O)c1)c1ccc(C(=O)N[C@@H](CNC(=O)c2cccs2)C(=O)O)c(Cl)c1
B: O=C(CCc1cccc(O)c1)c1ccc(C(=O)N[C@@H](CNC(=O)c2cccs2)C(=O)O)c(Cl)c1
Name the one with the greater pIC50 value, either A or B as given. Please respond with the label that marks your chosen entry.
A
